// data source = patent US5399696A

Catalogue of pIC50 readings, one per entry.
- assay.system: AMPA receptor
- protocol: Radioligand binding: [^3 H]AMPA binding with crude membranes of rat forebrain
- particulars: Table I; racemic; [^3 H]AMPA 5 nM, 100 mM KSCN; mean ± standard error (n = 3), values marked ^c single experiment; read-out: IC50 AMPA, receptor binding
pIC50: −log10 of the molar value.
measured.endpoint: pIC50

[
  {
    "molecule": "O=C(O)[C@@H]1C[C@H]2C[C@@H](CCc3cc(O)no3)CC[C@H]2CN1 (racemic)",
    "readout.value": 4.86
  },
  {
    "molecule": "O=C(O)[C@@H]1C[C@H]2C[C@H](CCS(=O)(=O)O)CC[C@H]2CN1 (racemic)",
    "readout.value": 4.95
  },
  {
    "molecule": "O=C(O)[C@@H]1C[C@H]2C[C@H](CCSc3nnn[nH]3)CC[C@H]2CN1 (racemic)",
    "readout.value": 4.98
  }
]
